B1: CSTF3 (parent)
chain: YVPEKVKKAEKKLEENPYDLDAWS

- Variants of: B1
- Protocol Summary: protein stability index of a GFP-peptide fusion (GPS, HEK-293T) (PSI 1-6); higher = more stable;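 note: lentivirally expressed fusions sorted by FACS into six bins by GFP to DsRed ratio, PSI derived from sequencing read proportions per bin multiplied by bin number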
- Test Parameters: c terminus: a fixed tail appended
Endpoint Label: protein stability index
Please give only the number in your answer, with no unit.

Data request: Item N16T has what recorded protein stability index?
Data returned: 2.27

Data request: S24D , same question.
Data returned: 2.21

Data request: W23D , same question.
Data returned: 1.91

Data request: L20R , same question.
Data returned: 2.9

Data request: D19Y , same question.
Data returned: 2.69

Data request: P17I , same question.
Data returned: 2.32

Data request: P3H , same question.
Data returned: 2.47

Data request: V2E , same question.
Data returned: 4.84

Data request: E10K , same question.
Data returned: 3.68

Data request: E4V , same question.
Data returned: 2.69

Data request: D21M , same question.
Data returned: 3.19

The measured values listed here are drawn from the supplement of paper PMC10567573.
